Data provenance is patent US11485751B2.

- Tested on: AG215, Klebsiella pneumonia
- measurement.description: MIC reference strain AG215
- Assay type: cell-based
- experimental.setup: Klebsiella pneumoniae, reference strain; read-out: MIC AG215 K. pneumonia
experimental.endpoint: MIC (µg/mL)
Give bare numbers, in µg/mL.

Answered examples (3):
molecule	target.under.test	MIC [µg/mL]
CNC1C(OC2OC(CO)C(N)C(O)C2O)OC2CC(N)C(OC3C(N)CC(N)C(O)C3OC3OC(CO)C(OCCO)C3O)OC2C1O (stereo not drawn) [DC178]	AG215, Klebsiella pneumonia	4
CNC1C(O[C@H]2OC(CO)[C@@H](N)C(O)C2O)O[C@H]2CC(N)[C@@H](O[C@@H]3C(N)C[C@@H](N)C(O)C3O)OC2C1O (stereo partly drawn) [apramycin]	AG215, Klebsiella pneumonia	2
CNC1C(OC2OC(CO)C(N)C(O)C2O)OC2CC(N)C(OC3C(N)CC(N)C(O)C3F)OC2C1O (stereo not drawn) [DC170, 5-Deoxy-5-fluoro apramycin]	AG215, Klebsiella pneumonia	2

Next, consider the following molecule.
Ask: Look up MIC of CNC1C(O)C2O[C@H](O[C@@H]3C(N)C[C@@H](N)C(O)[C@H]3OC3O[C@H](CN)[C@@H](O)[C@H]3O)C(N)C[C@@H]2O[C@@H]1O[C@H]1OC(CO)[C@@H](N)[C@H](O)C1O (stereo partly drawn) [DC201] and report it.
Result: 2

###

- System: Engineered E. coli AG103 armA
- measurement.description: Activity against G1405-methylated 16S-rRNA, E. coli AG103 armA
- Format: cell-based
experimental.endpoint: Activity E. coli AG103 armA

Worked examples follow.
compound	Activity E. coli AG103 armA
CNC1C(OC2OC(CO)C(N)C(O)C2O)OC2CC(N)C(OC3C(N)CC(NC(=O)C(O)CCN)C(O)C3O)OC2C1O (centres unmarked) [DC176]	0.25-0.5
CNC1C(OC2OC(CO)C(N)C(O)C2O)OC2CC(N)C(OC3C(N)CC(N)C(O)C3OC3OC(CNC=O)C(O)C3O)OC2C1O (centres unmarked) [DC177]	2-4
CNC1C(OC2OC(CO)C(N)C(O)C2O)OC2CC(N)C(OC3C(N)CC(N)C(O)C3OC3OC(CN)C(OCCN)C3O)OC2C1O (centres unmarked) [DC185]	0.5-1

Quick one: give me Activity E. coli AG103 armA for each item below, same order please.
1. CNC1C(OC2OC(CO)C(N)C(O)C2O)OC2CC(N)C(OC3C(N)CC(N)C(O)C3OC3OC(CNC=O)C(OCCN)C3O)OC2C1O (centres unmarked) [DC186]
2. CNC1C(O[C@H]2OC(CO)[C@@H](N)C(O)C2O)O[C@H]2CC(N)[C@@H](O[C@@H]3C(N)C[C@@H](N)C(O)C3O)OC2C1O (some centres unmarked) [apramycin]

Result:
["0.5-1", "1-2"]

###

Hi there, I'd appreciate the recorded MIC for every entry that follows.
- Test system: WT clinical isolates
- measurement.description: MIC broth microdilution, WT
- Type: cell-based
- experimental.setup: read-out: MIC WT, clinical isolates, IMM Univ. Zurich; wild type

Check out these entries, answers already filled in.
molecule	MIC
NC[C@@H]1O[C@H](O[C@H]2[C@@H](O)[C@H](O[C@@H]3[C@@H](O)[C@H](N)C[C@H](N)[C@H]3O[C@H]3O[C@H](CO)[C@@H](O)[C@H](O)[C@H]3N)O[C@@H]2CO)[C@H](N)[C@@H](O)[C@@H]1O [paromomycin, reference compound]	1 to 2 mg/L
CN[C@H]1C(O)C2O[C@H](O[C@@H]3C(N)C[C@@H](N)[C@@H](O)[C@H]3OCC(O)CN)C(N)C[C@@H]2O[C@@H]1O[C@H]1OC(CO)[C@@H](N)[C@H](O)C1O (some centres unmarked)	2 to 4 mg/L
CNC1C(O[C@H]2OC(CO)[C@@H](N)C(O)C2O)O[C@H]2CC(N)[C@@H](O[C@@H]3C(N)C[C@@H](N)C(O)C3O)OC2C1O (some centres unmarked)	2 to 4 mg/L

State the recorded MIC for every item in the following list.
1. CN[C@H]1C(O)C2O[C@H](O[C@@H]3C(N)C[C@@H](NC(=O)C(O)CCN)[C@@H](O)[C@H]3O)C(N)C[C@@H]2O[C@@H]1O[C@H]1OC(CO)[C@@H](N)[C@H](O)C1O (some centres unmarked)
2. CNC1C(O)C2O[C@H](O[C@@H]3C(N)C[C@@H](N)[C@@H](O)[C@H]3OCC(O)CO)C(N)C[C@@H]2O[C@@H]1O[C@H]1OC(CO)[C@@H](N)[C@H](O)C1O (some centres unmarked)

Result:
1: 2 to 4 mg/L; 2: 4 to 8 mg/L
